System: Human immunodeficiency virus 1
procedure_summary: Antiretroviral activity against HIV1 in human MT4 cells assessed as reduction in virus-induced cytopathogenicity by MTT assay
Type: functional, organism-based
measurement_conditions: Human immunodeficiency virus 1, MT4
measurement_kind: pEC50
Please keep in mind that pEC50 is minus log10 of the molar concentration; only the number is needed.

Q: For the molecule Cc1cccc(NC(=S)OCCc2ccccn2)c1 , what pEC50 is on record?
A: 5.11

Q: Recorded pEC50 for Cc1ccc(NC(=S)OCCc2ccncc2)cc1 , please?
A: 4.20

Q: Form field: reported pEC50 of Cc1ccc(NC(=S)OCCc2ccccn2)cc1Cl
A: 6.15

Q: Given the molecule O=[N+]([O-])c1ccc(NC(=S)OCCc2ccccc2)cc1 , what is its reported pEC50?
A: 6.05

Q: What does the record list as pEC50 for FC(F)(F)c1cc(NC(=S)OCCc2ccccn2)ccc1Cl ?
A: 5.26

Q: Find the recorded pEC50 belonging to O=[N+]([O-])c1ccc(NC(=S)OCCc2ccccn2)cc1 and report it.
A: 6.15

Q: If you can, please state the reported pEC50 value of Fc1cc(F)cc(NC(=S)OCCc2ccccn2)c1 .
A: 5.05

Q: Quick check: pEC50 of Cc1ccc(NC(=S)OCCc2ccccc2)cc1 ?
A: 5.37

Q: Any idea what pEC50 was measured for CCc1ccc(NC(=S)OCCc2ccccn2)cc1 ?
A: 5.00

Q: What pEC50 value was documented for this molecule, S=C(Nc1ccc(I)cc1)OCCc1ccccn1 ?
A: 6.30

Q: Requested field: pEC50. Item: S=C(Nc1ccccc1)OCCc1cccs1
A: 4.85

Q: Fill in the blank: the reported pEC50 of Fc1ccc(F)c(NC(=S)OCCc2ccccn2)c1 is ____.
A: 5.05

Q: Looking for the measured pEC50 of S=C(Nc1ccccc1)OCCc1ccccc1 , can you help?
A: 5.22

Q: What value of pEC50 has been recorded for this entry: O=[N+]([O-])c1cc(NC(=S)OCCc2ccccn2)ccc1Cl
A: 7.00

Q: Name the recorded pEC50 for Fc1cccc(NC(=S)OCCc2ccccn2)c1 .
A: 5.96

Q: Find the recorded pEC50 belonging to Fc1cccc(F)c1NC(=S)OCCc1ccccn1 and report it.
A: 4.42

Q: Need pEC50, item Cc1ccc(NC(=S)OCCc2ccccn2)cc1
A: 5.77

Q: What does the record list as pEC50 for S=C(Nc1ccc(Cl)cc1)OCCc1ccccn1 ?
A: 7.00

Q: Which pEC50 value is on record for O=[N+]([O-])c1cccc(NC(=S)OCCc2ccccn2)c1 ?
A: 5.80

Q: GET /values?readout=pEC50&item= Cc1ccccc1NC(=S)OCCc1ccccn1
A: 4.16

Q: # lookup: pEC50 of S=C(Nc1cccc(Cl)c1)OCCc1ccccn1
A: 5.85

Q: Recorded pEC50 for FC(F)(F)c1ccc(NC(=S)OCCc2ccccn2)cc1 , please?
A: 4.89

Q: Please look up its pEC50: Fc1ccc(NC(=S)OCCc2ccccn2)cc1
A: 5.92

Q: Please give the measured pEC50 for this molecule: S=C(Nc1ccc(Cl)c(Cl)c1)OCCc1ccccn1
A: 6.70

Q: Can you share its pEC50? I mean this molecule: S=C(Nc1ccc(Br)cc1)OCCc1ccccn1
A: 6.70

====

procedure_summary: Cytotoxicity against human MT4 cells by MTT assay
Type: cell-based
Field: CC50. Provide a value for each of the molecules that follow.

Q: Which CC50 is reported for this molecule? Fc1cc(F)cc(NC(=S)OCCc2ccccn2)c1
A: > 100 µM

Q: # lookup: CC50 of O=[N+]([O-])c1ccc(NC(=S)OCCc2ccncc2)cc1
A: > 100 µM

Q: # CC50 lookup, item CC(=O)c1ccc(NC(=S)OCCc2ccccn2)cc1
A: ≥ 100 µM

Q: Sample Cc1ccc(NC(=S)OCCc2ccccc2)cc1 — what was its CC50?
A: > 100 µM

====

procedure_summary: Cytotoxicity against human MT4 cells by MTT assay
Type: cell-based
Hi there, I'd appreciate the recorded CC50 for every entry that follows.

Q: Could you share which CC50 value was measured for Cc1ccccc1NC(=S)OCCc1ccccn1 ?
A: > 100 µM

Q: Any idea what its CC50 is? The compound is S=C(Nc1ccccc1Cl)OCCc1ccccn1
A: > 100 µM

Q: Would you mind telling me what CC50 value was observed for Fc1cccc(NC(=S)OCCc2ccccn2)c1 ?
A: ≥ 100 µM

Q: Can you share its CC50? I mean this compound: O=[N+]([O-])c1ccc(NC(=S)OCCc2ccccn2)cc1
A: > 100 µM

Q: If you can, please state the reported CC50 value of O=[N+]([O-])c1ccc(NC(=S)OCCc2ccccc2)cc1 .
A: > 100 µM

Q: // lookup CC50 for Cc1cccc(NC(=S)OCCc2ccccn2)c1
A: > 100 µM

====

Record form. Attribute: EC50. Fill in for each entry.
Tested on: Human immunodeficiency virus 1
procedure_summary: Antiretroviral activity against HIV1 in human MT4 cells assessed as reduction in virus-induced cytopathogenicity by MTT assay
Type: functional, organism-based
measurement_conditions: Human immunodeficiency virus 1, MT4

Q: Please give the measured EC50 for this compound: S=C(Nc1ccc(Cl)cc1)OCCc1ccncc1
A: > 70 µM

Q: What EC50 value was documented for this compound, O=[N+]([O-])c1ccc(NC(=S)OCCc2ccncc2)cc1 ?
A: > 100 µM

Q: Param item = CN(C)c1ccc(NC(=S)OCCc2ccccn2)cc1 ; retrieve measured EC50.
A: > 60 µM

Q: Record request: EC50 value, item CC(=O)c1ccc(NC(=S)OCCc2ccccn2)cc1
A: > 100 µM

Q: Query: EC50; subject: CC(C)c1ccc(NC(=S)OCCc2ccccn2)cc1
A: > 45 µM

Q: Record request: EC50 value, item COc1ccc(NC(=S)OCCc2ccncc2)cc1
A: > 59 µM
